- assay.system: Adrenergic β2 (H292 cells) (Homo sapiens)
- Construct: endogenous in cells; host or cells: H292 cells
- protocol: Assay for Adrenergic β2 Mediated cAMP Production (concentration response, AlphaScreen cAMP detection)
- Format: cell-based
- study.conditions: fraction relative to the maximum activity determined for formoterol
Counter-ions that a name gives are not always drawn.
property: β2 Intrinsic activity

molecule	β2 Intrinsic activity
CC(C)c1csc(C(=O)N2CCOC3(CCN(Cc4cccc(CCNC[C@H](O)c5ccc(O)c6[nH]c(=O)sc56)c4F)CC3)C2)c1 [Example 74, ditrifluoroacetate]	0.9
CC(CCCCCCCN1CCC2(CC1)CN(C(=O)c1csc(C(C)C)n1)CCO2)CNC[C@H](O)c1ccc(O)c2[nH]c(=O)sc12 (some centres unmarked) [Example 283, formate]	1.1
CC(C)c1nc(C(=O)N2CCOC3(CCN(Cc4cccc(C(C)(C)CNC[C@H](O)c5ccc(O)c6[nH]c(=O)sc56)c4F)CC3)C2)cs1 [Example 90, ditrifluoroacetate]	0.9
Cc1csc(C(=O)N2CCOC3(CCN(Cc4cc(F)cc(CCNC[C@H](O)c5ccc(O)c6[nH]c(=O)sc56)c4)CC3)C2)c1 [Example 60, ditrifluoroacetate]	1
O=C(c1csc(C(F)(F)F)n1)N1CCOC2(CCN(Cc3cccc(CCNC[C@H](O)c4ccc(O)c5[nH]c(=O)sc45)c3)CC2)C1 [Example 26, ditrifluoroacetate]	0.8

====

- assay.system: human muscarinic acetylcholine M3 receptor (M3-ACh) (Homo sapiens)
- Construct: expressed in transfected cells; host or cells: CHO-K1 (Chinese Hamster Ovary) cell membranes
- protocol: Muscarinic 3 Receptor Binding Assay ([3H]NMS competition, SPA)
- study.conditions: [3H]NMS 0.1 nM, CHO-K1 cell membranes, 16 hours at room temperature; read-out: M3 pIC50 (converted)
property: IC50 (nM)

a: CC(C)c1nc(C(=O)N2CCOC3(CCN(Cc4cccc(CCNC[C@H](O)c5ccc(O)c6[nH]c(=O)ccc56)c4)CC3)C2)cs1 [Example 23, ditrifluoroacetate]
b: CC(C)c1nc(C(=O)N2CCOC3(CCN(Cc4cccc5c(CNC[C@H](O)c6ccc(O)c7[nH]c(=O)sc67)cccc45)CC3)C2)cs1 [Example 62, ditrifluoroacetate]
c: CC(C)c1cc(C(=O)N2CCOC3(CCN(Cc4cc(CCNC[C@H](O)c5ccc(O)c6[nH]c(=O)sc56)cs4)CC3)C2)cs1 [Example 264, ditrifluoroacetate]
input: Please give the order of these compounds when sorted by IC50, largest value leading. # the answer lists labels in the order requested
output: b, c, a
(b: 251 nM, c: 7.94 nM, a: 0.251 nM)

====

- assay.system: human muscarinic acetylcholine M3 receptor (M3-ACh) (Homo sapiens)
- Construct: expressed in transfected cells; host or cells: CHO-K1 (Chinese Hamster Ovary) cell membranes
- protocol: Muscarinic 3 Receptor Binding Assay ([3H]NMS competition, SPA)
- study.conditions: [3H]NMS 0.1 nM, CHO-K1 cell membranes, 16 hours at room temperature; read-out: M3 pIC50 (converted)
Where a name gives a salt, the structure may show the parent alone.
property: IC50 (nM)

a: CCCc1cc(C(=O)N2CCOC3(CCN(Cc4cccc(CCNC[C@H](O)c5ccc(O)c6[nH]c(=O)sc56)c4)CC3)C2)cs1 [Example 267, ditrifluoroacetate]
b: O=C(c1ccc2cccnc2c1)N1CCOC2(CCN(Cc3cc(F)cc(CCNC[C@H](O)c4ccc(O)c5[nH]c(=O)sc45)c3)CC2)C1
c: Cc1nc(C(=O)N2CCOC3(CCN(Cc4cccc(CCNCC(O)c5ccc(O)c6c5OCC(=O)N6)c4)CC3)C2)cs1 (single isomer, unassigned; isomer 2) [Example 13]
input: Using measured IC50, arrange the compounds from above in descending sequence. Hello, could you send the labels back in the order asked? Thank you.
output: b, a, c

1: CC(C)c1nc(C(=O)N2CCOC3(CCN(Cc4cccc(CCCNC[C@H](O)c5ccc(O)c6[nH]c(=O)sc56)c4F)CC3)C2)cs1 [Example 88, ditrifluoroacetate]
2: CC(C)c1nc(C(=O)N2CCOC3(CCN(Cc4cccc(C(F)CNC[C@H](O)c5ccc(O)c6[nH]c(=O)sc56)c4)CC3)C2)cs1 (some centres unmarked) [Example 39, ditrifluoroacetate]
input: Return label of the item with the larger IC50. Candidates: 1 , 2 . The response must carry the label of the picked entry.
output: 1

I: O=C(c1ccc2occc2c1)N1CCOC2(CCN(Cc3cccc(CCNC[C@H](O)c4ccc(O)c5[nH]c(=O)sc45)c3)CC2)C1
II: CC(C)c1nc(C(=O)N2CCOC3(CCN(Cc4cc(Cl)cc(CCNC[C@H](O)c5ccc(O)c6[nH]c(=O)sc56)c4)CC3)C2)cs1 [Example 52, ditrifluoroacetate]
input: Between I and II , which one shows the larger IC50 value? Write the label of whichever entry you select.
output: II

1: Cc1ccc(C(=O)N2CCOC3(CCN(Cc4cccc(CCNC[C@H](O)c5ccc(O)c6[nH]c(=O)sc56)c4)CC3)C2)s1 [Example 15, trifluoroacetate]
2: CC(C)c1nc(C(=O)N2CCOC3(CCN(Cc4cccc(C(C)(C)CNC[C@H](O)c5ccc(O)c6[nH]c(=O)sc56)c4F)CC3)C2)cs1 [Example 90, ditrifluoroacetate]
input: Of 1 and 2 , which shows the smaller IC50 value? Identify your selection by its label.
output: 1
(1: 1.26 nM, 2: 79.4 nM)

I: CCCCc1nc(C(=O)N2CCOC3(CCN(Cc4cccc(CCNC[C@H](O)c5ccc(O)c6[nH]c(=O)sc56)c4F)CC3)C2)cs1 [Example 78, ditrifluoroacetate]
II: Cc1nc(C(=O)N2CCOC3(CCN(CCOc4cc(C)c(CNC[C@H](O)c5ccc(O)c6[nH]c(=O)sc56)cc4C)CC3)C2)cs1 [Example 18, ditrifluoroacetate]
input: Recorded IC50 values differ for I and II ; which one is higher? Could you answer with the label of the item you picked?
output: I

====

- assay.system: human muscarinic acetylcholine M3 receptor (M3-ACh) (Homo sapiens, UniProt P20309)
- Construct: expressed in transfected cells; host or cells: CHO-K1 (Chinese Hamster Ovary) cell membranes
- Sequence (P20309 whole entry): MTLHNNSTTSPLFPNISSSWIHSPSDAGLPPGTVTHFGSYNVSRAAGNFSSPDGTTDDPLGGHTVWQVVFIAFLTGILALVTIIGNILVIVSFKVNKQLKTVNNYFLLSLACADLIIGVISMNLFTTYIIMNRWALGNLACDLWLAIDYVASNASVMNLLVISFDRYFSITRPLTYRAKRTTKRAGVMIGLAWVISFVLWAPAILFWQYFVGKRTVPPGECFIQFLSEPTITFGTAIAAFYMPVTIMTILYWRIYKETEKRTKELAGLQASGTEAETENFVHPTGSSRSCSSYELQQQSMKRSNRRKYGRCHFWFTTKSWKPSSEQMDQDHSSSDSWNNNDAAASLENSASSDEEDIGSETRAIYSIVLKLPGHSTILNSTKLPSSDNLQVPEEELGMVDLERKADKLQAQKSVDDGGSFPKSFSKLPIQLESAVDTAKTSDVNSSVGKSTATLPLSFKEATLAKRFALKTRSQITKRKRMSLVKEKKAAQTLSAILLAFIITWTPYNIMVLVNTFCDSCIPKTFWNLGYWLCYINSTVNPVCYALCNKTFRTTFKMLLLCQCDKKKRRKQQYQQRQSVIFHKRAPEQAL
- protocol: Muscarinic 3 Receptor Binding Assay ([3H]NMS competition, SPA)
- study.conditions: [3H]NMS 0.1 nM, CHO-K1 cell membranes, 16 hours at room temperature; read-out: M3 pIC50 (converted)
property: IC50 (nM)

Known results for compounds:
compound	property	val
Cc1nc(C(=O)N2CCOC3(CCN(Cc4cccc(CNC[C@H](O)c5ccc(O)c6[nH]c(=O)ccc56)c4)CC3)C2)cs1 [Example 96, ditrifluoroacetate]	IC50	0.251
CC(C)c1nc(C(=O)N2CCOC3(CCN(Cc4ccc(F)c(CCNC[C@H](O)c5ccc(O)c6[nH]c(=O)sc56)c4F)CC3)C2)cs1 [Example 45, ditrifluoroacetate]	IC50	5.01
Cc1nc(CC(=O)N2CCOC3(CCN(CCCCCCCCCNC[C@H](O)c4ccc(O)c5[nH]c(=O)sc45)CC3)C2)cs1	IC50	7.94

I: O=C(c1csc(C2CC2)n1)N1CCOC2(CCN(CCOc3ccc(CNC[C@H](O)c4ccc(O)c5[nH]c(=O)sc45)cc3)CC2)C1
II: O=C(c1cc2ccccc2s1)N1CCOC2(CCN(Cc3cccc(CCNC[C@H](O)c4ccc(O)c5[nH]c(=O)sc45)c3F)CC2)C1 [Example 79, ditrifluoroacetate]
III: CC(C)c1nc(C(=O)N2CCOC3(CCN(Cc4cccc(SCCNC[C@H](O)c5ccc(O)c6[nH]c(=O)sc56)c4)CC3)C2)cs1 [Example 65, ditrifluoroacetate]
input: # desc sort on IC50 across 3 compounds Output spec: labels arranged per the requested ranking.
output: II, I, III

====

- assay.system: Adrenergic β2 (H292 cells) (Homo sapiens, UniProt P07550)
- Construct: endogenous in cells; host or cells: H292 cells
- Sequence (P07550 whole entry): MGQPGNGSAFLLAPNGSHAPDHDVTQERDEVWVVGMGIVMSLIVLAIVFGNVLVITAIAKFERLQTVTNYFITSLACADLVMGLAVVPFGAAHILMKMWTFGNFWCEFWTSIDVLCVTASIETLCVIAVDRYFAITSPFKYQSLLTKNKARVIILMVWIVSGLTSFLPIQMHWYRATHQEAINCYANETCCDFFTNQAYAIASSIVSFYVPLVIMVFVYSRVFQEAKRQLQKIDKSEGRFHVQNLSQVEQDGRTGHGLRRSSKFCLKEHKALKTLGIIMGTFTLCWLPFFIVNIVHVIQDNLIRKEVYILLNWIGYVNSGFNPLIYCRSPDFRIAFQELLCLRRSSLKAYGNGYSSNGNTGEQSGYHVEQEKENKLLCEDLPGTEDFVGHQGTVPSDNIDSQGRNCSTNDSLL
- protocol: Assay for Adrenergic β2 Mediated cAMP Production (concentration response, AlphaScreen cAMP detection)
- Format: cell-based
- study.conditions: fraction relative to the maximum activity determined for formoterol
Where a name gives a salt, the structure may show the parent alone.
property: β2 Intrinsic activity

compound	β2 Intrinsic activity
CC(C)c1nc(C(=O)N2CCOC3(CCN(CCCCCCCC(C)(C)CNC[C@H](O)c4ccc(O)c5[nH]c(=O)sc45)CC3)C2)cs1 [Example 103, formate]	1
CC(C)c1nc(C(=O)N2CCOC3(CCN(CCCCCCSCCNC[C@H](O)c4ccc(O)c5[nH]c(=O)sc45)CC3)C2)cs1 [Example 101, formate]	1
Cc1ccc(C(=O)N2CCOC3(CCN(Cc4ccc(F)c(CCNC[C@H](O)c5ccc(O)c6[nH]c(=O)ccc56)c4F)CC3)C2)s1 [Example 35, ditrifluoroacetate]	1
O=C(c1csc(-c2ccccc2)n1)N1CCOC2(CCN(Cc3cc(F)cc(CCNC[C@H](O)c4ccc(O)c5[nH]c(=O)sc45)c3)CC2)C1 [Example 41, ditrifluoroacetate]	1.1
Cc1nc2cc(C(=O)N3CCOC4(CCN(Cc5cc(CCNC[C@H](O)c6ccc(O)c7[nH]c(=O)sc67)cs5)CC4)C3)ccc2s1 [Example 49, ditrifluoroacetate]	0.9
Cc1ccc(S(=O)(=O)N2CCOC3(CCN(Cc4cc(F)cc(CCNC[C@H](O)c5ccc(O)c6[nH]c(=O)sc56)c4)CC3)C2)s1 [Example 63, ditrifluoroacetate]	1
Cc1ccc(C(=O)N2CCOC3(CCN(Cc4cc(CCNC[C@H](O)c5ccc(O)c6[nH]c(=O)sc56)cs4)CC3)C2)s1 [Example 27, ditrifluoroacetate]	1
O=C(c1csc(C2CCC2)n1)N1CCOC2(CCN(Cc3cc(F)cc(CCNC[C@H](O)c4ccc(O)c5[nH]c(=O)sc45)c3)CC2)C1 [Example 58, ditrifluoroacetate]	0.9
CC(C)c1nc(C(=O)N2CCOC3(CCN(CCCCCC(C)(C)CCCNC[C@H](O)c4ccc(O)c5[nH]c(=O)sc45)CC3)C2)cs1 [Example 285, formate]	1
Cc1ccc(C(=O)N2CCOC3(CCN(CCOc4ccc(CNC[C@H](O)c5ccc(O)c6[nH]c(=O)sc56)cc4)CC3)C2)s1 [Example 110, formate]	0.8
Cc1cc(C(=O)N2CCOC3(CCN(CCOc4ccc(CNC[C@H](O)c5ccc(O)c6[nH]c(=O)sc56)cc4)CC3)C2)cs1 [Example 104, formate]	0.9
